Attribution: the supplement of paper PMC13380429

- System: U2OS
- experiment.description: cell viability relative to DMSO; higher = less toxic
- test.context: 72 h; 100 nM
Please go through the items and note down their cell viability.
One number for each entry, in %.

Recorded cell viability, per entry:
| compound | cell viability / % |
| --- | --- |
| Cc1csc2c(N[C@@H](C)CN3CCN(S(=O)(=O)c4ccc(Cl)c(Cl)c4)CC3)ncnc12 [LPA2-antagonist-1] | 97.4 |
| C[C@H](NCc1ccc(OCc2cccc(F)c2)cc1)C(N)=O [safinamide] | 99 |
| C[C@@]1(F)[C@H](O)[C@@H](CO)O[C@H]1n1ccc(N)nc1=O [PSI-6130] | 96.9 |

For every item below, please supply its cell viability.
1. c1ccc2c(c1)CCCc1cc(NCCN3CCOCC3)nnc1-2
2. CCCC(=O)Nc1ncnc2c1ncn2[C@@H]1O[C@@H]2COP(=O)(O)O[C@H]2[C@H]1OC(=O)CCC [bucladesine]
3. Cc1cccc(C(=O)O)c1O [hydroxytoluic-acid]
4. Cn1c(=O)c2c(ncn2CCO)n(C)c1=O [etofylline]
5. Cc1ccc(NC(=O)c2cccc(N(C)C)c2)cc1NC(=O)c1ccc(O)cc1

[92.9, 103, 102, 97, 99.5]

Noted for CN1[C@@H]2CC[C@H]1C[C@@H](OC(=O)N1Cc3ccccc3NC1=O)C2 [DAU-5884] : its cell viability reads 94.4

* * *

- Tested on: HepG2
- experiment.description: cell viability relative to DMSO; higher = less toxic
- test.context: 72 h; 10 nM
readout.label: cell viability (%)
Give bare numbers, in %.

| molecule | measured.on | cell viability / % |
| --- | --- | --- |
| O=[N+]([O-])c1ccc2c(c1)S(=O)(=O)C=C2 | HepG2 | 95.7 |
| CNC(=O)[C@H](Cc1c[nH]c2ccccc12)NC(=O)[C@@H](CC(=O)NO)CC(C)C | HepG2 | 90.5 |
| Nc1cc(C(F)(F)F)c(-c2nc(N3CCOCC3)nc(N3CCOCC3)n2)cn1 | HepG2 | 106 |

For every item below, please supply its cell viability.
1. N#Cc1ccc(-c2csc(NN=C3CCCC3)n2)cc1
2. CC(C)(C)NCC(O)c1cc(O)cc(O)c1 (stereo not drawn) [TERBUTALINE HEMISULFATE]
3. C=C[C@@]1(C)CC(=O)[C@]2(O)[C@@]3(C)[C@@H](O)CCC(C)(C)[C@@H]3[C@H](OC(=O)CCN(C)C)[C@H](OC(C)=O)[C@@]2(C)O1 [colforsin-daproate]
4. O=c1[nH]c2ccccc2n1C1CCN(CCCC(c2ccc(F)cc2)c2ccc(F)cc2)CC1 [pimozide]
5. CCN(c1cc(C#CCN2CCOCC2)cc(C(=O)NCc2c(C)cc(C)[nH]c2=O)c1C)[C@H]1CC[C@H](N(C)CCOC)CC1

1: 97.2; 2: 102; 3: 100; 4: 114; 5: 122

* * *

- Tested on: Vero E6
- experiment.description: cell viability relative to DMSO; higher = less toxic
- test.context: 72 h; 10 nM
readout.label: cell viability (%)
Answers are plain numbers, in %.

Recorded cell viability, per entry:
| compound | measured.on | val |
| --- | --- | --- |
| O=C(/C=C/c1ccc2ccc(C(F)(F)F)cc2n1)c1ccncc1 | Vero E6 | 86.7 |
| C=C[C@@]1(C)CC(=O)[C@]2(O)[C@@]3(C)[C@@H](O)CCC(C)(C)[C@@H]3[C@H](OC(=O)CCN(C)C)[C@H](OC(C)=O)[C@@]2(C)O1 [colforsin-daproate] | Vero E6 | 93.9 |
| CCC(CC)COC(=O)[C@H](C)N[P@](=O)(OC[C@H]1O[C@@](C#N)(c2ccc3c(N)ncnn23)[C@H](O)[C@@H]1O)Oc1ccccc1 | Vero E6 | 97.6 |
| C[C@@]1(F)[C@H](O)[C@@H](CO)O[C@H]1n1ccc(N)nc1=O | Vero E6 | 93.3 |
| O=C(NCCCCN1CCN(c2cccc(Cl)c2Cl)CC1)c1ccc2c(c1)Cc1ccccc1-2 | Vero E6 | 91.2 |

For every item below, please supply its cell viability.
1. Nc1nc2c(c(N3CCNCC3)n1)CCC1=C2[C@@H]2CCCC[C@@H]2O1
2. Cc1cc(O)ccc1Cl
3. COc1ccc2c3c1O[C@H]1C[C@@H](O)C=C[C@@]31CCN(C)C2

93
103
99.1
